system: M. mycetomatis genome strain MM55; assay: CLSI M38-A2 based in vitro susceptibility screening (XTT or resazurin), growth at fixed concentration; type: cell-based, Madurella mycetomatis; settings: Madurella mycetomatis, 100 uM, replicate (first column); read-out: Percentage survival at 100um, 100 uM A
Here the recorded activity at 100 µM is given for each entry.

[
  {
    "Compound": "Cc1cc(NS(=O)(=O)c2ccc(-c3ccc(F)cc3F)cc2)no1",
    "activity at 100 µM [%]": 83.4
  },
  {
    "Compound": "Clc1cc(Cl)c2c(c1)CCc1ccccc1C2n1ccnc1 (stereo not drawn) [MMV1634492, Eberconazole, reference compound]",
    "activity at 100 µM [%]": -3.84
  },
  {
    "Compound": "O=S(=O)(NCB(O)O)c1cc2c(Cl)ccc(Cl)c2s1",
    "activity at 100 µM [%]": 88.2
  }
]

----------
system: M. mycetomatis genome strain MM55; test: CLSI M38-A2 based in vitro susceptibility screening (XTT or resazurin), growth at fixed concentration; format: cell-based, Madurella mycetomatis; conditions: Madurella mycetomatis, 100 uM, replicate 3; read-out: Percentage survival at 100um, 100 uM A (third replicate column)
Experimental Readout: activity at 100 µM

[
  {
    "Compound": "Nc1c(C(=O)NCc2ccco2)c2nc3ccccc3nc2n1CCN1CCCCC1",
    "Tgt": "M. mycetomatis genome strain MM55",
    "Test Result": "3.69%"
  },
  {
    "Compound": "O=C(O)C(Cc1c[nH]c2ccccc12)N1C(=O)c2ccccc2C1=O (centres unmarked)",
    "Tgt": "M. mycetomatis genome strain MM55",
    "Test Result": "92.9%"
  },
  {
    "Compound": "CCCCCCCCCN1C[C@@H](O)[C@H](O)[C@@H](O)[C@@H]1CO",
    "Tgt": "M. mycetomatis genome strain MM55",
    "Test Result": "86.2%"
  },
  {
    "Compound": "CC(=O)N[C@H](C)C(=O)N[C@H](Cc1ccccc1)C(=O)O",
    "Tgt": "M. mycetomatis genome strain MM55",
    "Test Result": "88.3%"
  },
  {
    "Compound": "CCOc1ccc(/C=N/NC(=O)C2CC2c2ccc(C(C)(C)C)cc2)cc1OCC (centres unmarked)",
    "Tgt": "M. mycetomatis genome strain MM55",
    "Test Result": "67.1%"
  },
  {
    "Compound": "Cc1onc(-c2ccccc2)c1-c1ccc(S(N)(=O)=O)cc1",
    "Tgt": "M. mycetomatis genome strain MM55",
    "Test Result": "76.9%"
  },
  {
    "Compound": "CCc1cc(O)c(Oc2ccc(C(N)=O)cc2F)cc1F",
    "Tgt": "M. mycetomatis genome strain MM55",
    "Test Result": "80.6%"
  },
  {
    "Compound": "COc1ccc(CNC(=O)C(NS(=O)(=O)c2ccc3nc(C)sc3c2)C(C)C)cc1 (centres unmarked)",
    "Tgt": "M. mycetomatis genome strain MM55",
    "Test Result": "67.5%"
  },
  {
    "Compound": "O=C1C=C(c2ccccc2)S(=O)(=O)c2ccccc21",
    "Tgt": "M. mycetomatis genome strain MM55",
    "Test Result": "10.9%"
  },
  {
    "Compound": "Oc1c(C(Nc2ccccn2)c2ccccc2)ccc2cccnc12 (centres unmarked)",
    "Tgt": "M. mycetomatis genome strain MM55",
    "Test Result": "17.8%"
  },
  {
    "Compound": "Cc1cccc(C)c1C(=O)Nc1nc(-c2ccccn2)cc2ccccc12",
    "Tgt": "M. mycetomatis genome strain MM55",
    "Test Result": "118%"
  }
]
